Tested on: 616215-338-R-J1-PDC spheroids with HUVEC/MSC, viability
procedure details: Anticancer human tumor 616215-338-R-J1-PDC patient-derived colon adenocarcinoma cell line growth inhibition [PI3K]
condition set: second compound 0.0316 µM; first compound 3.16 µM; active compounds read low
measurement kind: viability, T/C (%)
Numeric answer only, unit % assumed.

[in] Endpoint output: viability, T/C of CCCS(=O)(=O)Nc1ccc(F)c(C(=O)c2c[nH]c3ncc(-c4ccc(Cl)cc4)cc23)c1F + COc1c(OCCCN2CCOCC2)ccc2c3n(c(=NC(=O)c4cnc(N)nc4)nc12)CCN3 . Value?
[out] 77

[in] Endpoint output: viability, T/C of CC(C)NCC(C(=O)N1CCN(c2ncnc3c2C(C)CC3O)CC1)c1ccc(Cl)cc1 (stereo not drawn) + COc1c(OCCCN2CCOCC2)ccc2c3n(c(=NC(=O)c4cnc(N)nc4)nc12)CCN3 . Value?
[out] 40.1

[in] Endpoint output: viability, T/C of C[C@@H](NC(=O)c1ncnc(N)c1Cl)c1ncc(C(=O)Nc2cc(C(F)(F)F)c(Cl)cn2)s1 + COc1c(OCCCN2CCOCC2)ccc2c3n(c(=NC(=O)c4cnc(N)nc4)nc12)CCN3 . Value?
[out] 91.2

###

Tested on: 616215-338-R-J1-PDC spheroids with HUVEC/MSC, viability
procedure details: Anticancer human tumor 616215-338-R-J1-PDC cell line growth inhibition [PI3K];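 note: spheroids exposed to agents for seven days before the viability read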
condition set: second compound 0.316 µM; first compound 0.0949 µM; active compounds read low
Source text: Combinatorial screen of targeted agents with the PI3K inhibitors inavolisib, alpelisib, duvelisib, and copanlisib in multi-cell type tumor spheroids A high-throughput screen of multi-cell type tumor spheroids was designed to identify active combinations of targeted small molecules and PI3K pathway inhibitors. […] Compounds. […] If the clinical Cmax for an agent had not been determined, the highest concentration tested was 10 microM. […]
measurement kind: viability, T/C (%)
Numeric answer only, unit % assumed.

[in] Endpoint output: viability, T/C of Cn1cnc2c(F)c(Nc3ccc(Br)cc3Cl)c(C(=O)NOCCO)cc21 + COc1c(OCCCN2CCOCC2)ccc2c3n(c(=NC(=O)c4cnc(N)nc4)nc12)CCN3 . Value?
[out] 36.9

[in] Endpoint output: viability, T/C of Cn1cnc2c(F)c(Nc3ccc(Br)cc3Cl)c(C(=O)NOCCO)cc21 + CC(Nc1ccc2c(c1)OCCn1cc(N3C(=O)OCC3C(F)F)nc1-2)C(N)=O . Value?
[out] 79.4

[in] Endpoint output: viability, T/C of Cn1cnc2c(F)c(Nc3ccc(Br)cc3Cl)c(C(=O)NOCCO)cc21 + Cc1nc(NC(=O)N2CCCC2C(N)=O)sc1-c1ccnc(C(C)(C)C(F)(F)F)c1 . Value?
[out] 77.4

[in] Endpoint output: viability, T/C of Cn1cnc2c(F)c(Nc3ccc(Br)cc3Cl)c(C(=O)NOCCO)cc21 + CC(Nc1ncnc2nc[nH]c12)c1cc2cccc(Cl)c2c(=O)n1-c1ccccc1 . Value?
[out] 86.5

###

Can you tell me viability, T/C for the items I'm about to list?
Tested on: 616215-338-R-J1-PDC spheroids with HUVEC/MSC, viability
procedure details: Anticancer human tumor 616215-338-R-J1-PDC cell line growth inhibition [PI3K];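 note: spheroids exposed to agents for seven days before the viability read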
condition set: second compound 0.01 µM; first compound 10 µM; active compounds read low

[in] Entry CNC(=O)c1ccc(N2C(=S)N(c3ccc(C#N)c(C(F)(F)F)c3)C(=O)C2(C)C)cc1F + CC(Nc1ccc2c(c1)OCCn1cc(N3C(=O)OCC3C(F)F)nc1-2)C(N)=O , system 616215-338-R-J1-PDC spheroids with HUVEC/MSC, viability: what viability, T/C was measured?
[out] 95%

[in] Entry CC(Cn1ccc(-c2ccc(C#N)c(Cl)c2)n1)NC(=O)c1cc(C(C)O)[nH]n1 (stereo not given) + CC(Nc1ccc2c(c1)OCCn1cc(N3C(=O)OCC3C(F)F)nc1-2)C(N)=O , system 616215-338-R-J1-PDC spheroids with HUVEC/MSC, viability: what viability, T/C was measured?
[out] 104%

[in] Entry Cn1ncc(Cl)c1-c1cc(C(=O)NC(CN)Cc2cccc(F)c2)sc1Cl (stereo not given) + COc1c(OCCCN2CCOCC2)ccc2c3n(c(=NC(=O)c4cnc(N)nc4)nc12)CCN3 , system 616215-338-R-J1-PDC spheroids with HUVEC/MSC, viability: what viability, T/C was measured?
[out] 17.6%

[in] Entry CC1(C)CCC(CN2CCN(c3ccc(C(=O)NS(=O)(=O)c4ccc(NCC5CCOCC5)c([N+](=O)[O-])c4)c(Oc4cnc5[nH]ccc5c4)c3)CC2)=C(c2ccc(Cl)cc2)C1 + COc1c(OCCCN2CCOCC2)ccc2c3n(c(=NC(=O)c4cnc(N)nc4)nc12)CCN3 , system 616215-338-R-J1-PDC spheroids with HUVEC/MSC, viability: what viability, T/C was measured?
[out] 96.8%

[in] Entry Cn1nccc1Nc1nccc(-c2ccn(C(CO)c3ccc(Cl)c(F)c3)c(=O)c2)n1 (stereo not given) + CC(Nc1ccc2c(c1)OCCn1cc(N3C(=O)OCC3C(F)F)nc1-2)C(N)=O , system 616215-338-R-J1-PDC spheroids with HUVEC/MSC, viability: what viability, T/C was measured?
[out] 41%
